Consider the following compounds and their measured C24 Mean readings.
- procedureDetails: Pharmacokinetics of released PEGylated protease inhibitor following P.O. administration of prodrugs in rats
- Type: in vivo, male Sprague-Dawley rats
- Parameters: unit not given here
- conditionsUsed: concentration at 24 hours; mPEG5-atazanavir in plasma after PO administration of mPEG5-ATV or of the listed prodrug, rats (n = 4-5)
Returns: the value as a bare number; no unit string appended.

Check out these entries, answers already filled in.
{"columns": ["compound", "C24 Mean"],
 "data": [
  ["CCOCO[C@@H](CN(Cc1ccc(-c2ccccn2)cc1)NC(=O)[C@@H](NC(=O)OC)C(C)(C)C)[C@H](Cc1ccccc1)NC(=O)[C@@H](NC(=O)OCCOCCOCCOCCOCCOC)C(C)(C)C [Methyl ethyl ether mPEG5-ATV, mPEG5-Atazanavir Methyl Ethyl Ether]", 2.7],
  ["CCCC(=O)OC(CN(Cc1ccc(-c2ccccn2)cc1)NC(=O)C(NC(=O)OC)C(C)(C)C)C(Cc1ccccc1)NC(=O)C(NC(=O)OCCOCCOCCOCCOCCOC)C(C)(C)C (stereo not drawn) [C3H7CO-mPEG5-ATV, mPEG5-Atazanavir Butyrate]", 0.00]
]}

Okay, next one:
Query (compound): CCOC(=O)O[C@@H](CN(Cc1ccc(-c2ccccn2)cc1)NC(=O)[C@@H](NC(=O)OC)C(C)(C)C)[C@H](Cc1ccccc1)NC(=O)[C@@H](NC(=O)OCCOCCOCCOCCOCCOC)C(C)(C)C.Cl [mPEG5-Atazanavir - Ethyl Carbonate HCl, mPEG5-Atazanavir Ethyl Carbonate] ; field requested: C24 Mean
2.76

Source: patent US20120108501A1
